Structures can show the parent of a compound that is named as a salt.
Give melting point for every item shown.

molecule	melting point
CC[C@H](NC(=O)c1c(CN(C)CCO)c(-c2ccccc2)nc2ccccc12)c1ccccc1	167 to 170 °C
CC[C@H](NC(=O)c1c(CN2CCN(Cc3ccccc3)CC2)c(-c2ccccc2)nc2ccccc12)c1ccccc1	85 °C (dec.)

Each of the following entries comes with a recorded value; kindly state melting point for each.
1. CC[C@H](NC(=O)c1c(CN2CCN(CCc3ccccc3)CC2)c(-c2ccccc2)nc2ccccc12)c1ccccc1
2. CC[C@H](NC(=O)c1c(CCCN2CCC(c3ccccc3)CC2)c(-c2ccccc2)nc2ccccc12)c1ccccc1
3. CC[C@H](NC(=O)c1c(CCCN2CCN(c3ccccc3)CC2)c(-c2ccccc2)nc2ccccc12)c1ccccc1 (as salt: HCl)
4. CC[C@H](NC(=O)c1c(CCN2CCN(c3ccc(F)cc3)CC2)c(-c2ccccc2)nc2ccccc12)c1ccccc1
5. CC[C@H](NC(=O)c1c(CCCN2C(=O)c3ccccc3C2=O)c(-c2ccccc2)nc2ccccc12)c1ccccc1
6. CC[C@H](NC(=O)c1c(CN2CCC(=O)C2)c(-c2ccccc2)nc2ccccc12)c1ccccc1

1: 158 to 160 °C; 2: 75 to 80 °C; 3: 180 °C (dec.); 4: 96 to 98 °C; 5: 182 to 183 °C; 6: 142 to 145 °C

Give melting point for all molecules that follow.
1. CC[C@H](NC(=O)c1c(CCN2CCN(c3ccccc3)CC2)c(-c2ccccc2)nc2ccccc12)c1ccccc1 (as salt: HCl)
2. CC[C@H](NC(=O)c1c(CCCCN2CCN(c3ccccc3)CC2)c(-c2ccccc2)nc2ccccc12)c1ccccc1

["206 °C (dec.)", "151 to 153 °C"]

Can you give me melting point for all of these, one by one?
1. CC[C@H](NC(=O)c1c(CN2CC[C@H](O)C2)c(-c2ccccc2)nc2ccccc12)c1ccccc1
2. CC[C@H](NC(=O)c1c(CCN2CCN(c3cccc(C(F)(F)F)c3)CC2)c(-c2ccccc2)nc2ccccc12)c1ccccc1
3. CC[C@H](NC(=O)c1c(CN2CCC(=O)CC2)c(-c2ccccc2)nc2ccccc12)c1ccccc1
4. CC[C@H](NC(=O)c1c(CCN2CCN(c3ccc(C)cc3)CC2)c(-c2ccccc2)nc2ccccc12)c1ccccc1

1. 90 to 95 °C
2. 115 to 117 °C
3. > 95 °C
4. 93 to 96 °C

Each molecule below has a reported value. Please supply its melting point.
1. CC[C@H](NC(=O)c1c(CN2CCC[C@@H]2CO)c(-c2ccccc2)nc2ccccc12)c1ccccc1
2. CC[C@H](NC(=O)c1c(CN2CCC(O)CC2)c(-c2ccccc2)nc2ccccc12)c1ccccc1

["83 °C (dec.)", "203 to 207 °C"]

Hi team, please reply with melting point for each item in this list.
1. CC[C@H](NC(=O)c1c(CN2CCN(C(C)C)CC2)c(-c2ccccc2)nc2ccccc12)c1ccccc1 (as salt: HCl)
2. CC(C)[C@H](NC(=O)c1c(CN2CCN(C(C)C)CC2)c(-c2ccccc2)nc2ccccc12)c1ccccc1
3. CC[C@H](NC(=O)c1c(CN2CC[C@@H](O)C2)c(-c2ccccc2)nc2ccccc12)c1ccccc1

178 to 182 °C
125 to 130 °C
100 to 105 °C

Consider the following items and state reported melting point for each.
1. CC[C@H](NC(=O)c1c(CN2CCC3(CCCC3)CC2)c(-c2ccccc2)nc2ccccc12)c1ccccc1
2. CC[C@H](NC(=O)c1c(CN2CCN(CC)CC2)c(-c2ccccc2)nc2ccccc12)c1ccccc1
3. CC[C@H](NC(=O)c1c(CN2CCCCC2)c(-c2ccccc2)nc2ccccc12)c1ccccc1 (as salt: HCl)

["156 to 160 °C", "75 to 78 °C", "140 °C (dec.)"]

State the recorded melting point for every item in the following list.
1. CC[C@H](NC(=O)c1c(CN2CCN(C)CC2)c(-c2ccccc2)nc2ccccc12)c1ccccc1 (as salt: HCl)
2. CC[C@H](NC(=O)c1c(CN2CCC3(CC2)OCCO3)c(-c2ccccc2)nc2ccccc12)c1ccccc1
3. CC[C@H](NC(=O)c1c(CCN2CCN(c3ccc(Cl)cc3)CC2)c(-c2ccccc2)nc2ccccc12)c1ccccc1

1: 195 to 198 °C; 2: 170 to 173 °C; 3: 100 to 110 °C (dec.)

Value sought for every listed molecule: melting point.
1. CC[C@H](NC(=O)c1c(CCCN2CCN(c3ccc(Cl)cc3)CC2)c(-c2ccccc2)nc2ccccc12)c1ccccc1
2. CC(C)[C@H](NC(=O)c1c(CN(C)C)c(-c2ccccc2)nc2ccccc12)c1ccccc1

1. 100 to 105 °C
2. 117 to 120 °C

Assign melting point to the following record: CC[C@H](NC(=O)c1c(CCCN2CCN(c3cccc(C(F)(F)F)c3)CC2)c(-c2ccccc2)nc2ccccc12)c1ccccc1 102 to 105 °C
